The measurements presented in this section are drawn from ChEMBL document CHEMBL1143049.

Tested System: Histidine kinase 3 (Arabidopsis thaliana)
Sequence (whole entry): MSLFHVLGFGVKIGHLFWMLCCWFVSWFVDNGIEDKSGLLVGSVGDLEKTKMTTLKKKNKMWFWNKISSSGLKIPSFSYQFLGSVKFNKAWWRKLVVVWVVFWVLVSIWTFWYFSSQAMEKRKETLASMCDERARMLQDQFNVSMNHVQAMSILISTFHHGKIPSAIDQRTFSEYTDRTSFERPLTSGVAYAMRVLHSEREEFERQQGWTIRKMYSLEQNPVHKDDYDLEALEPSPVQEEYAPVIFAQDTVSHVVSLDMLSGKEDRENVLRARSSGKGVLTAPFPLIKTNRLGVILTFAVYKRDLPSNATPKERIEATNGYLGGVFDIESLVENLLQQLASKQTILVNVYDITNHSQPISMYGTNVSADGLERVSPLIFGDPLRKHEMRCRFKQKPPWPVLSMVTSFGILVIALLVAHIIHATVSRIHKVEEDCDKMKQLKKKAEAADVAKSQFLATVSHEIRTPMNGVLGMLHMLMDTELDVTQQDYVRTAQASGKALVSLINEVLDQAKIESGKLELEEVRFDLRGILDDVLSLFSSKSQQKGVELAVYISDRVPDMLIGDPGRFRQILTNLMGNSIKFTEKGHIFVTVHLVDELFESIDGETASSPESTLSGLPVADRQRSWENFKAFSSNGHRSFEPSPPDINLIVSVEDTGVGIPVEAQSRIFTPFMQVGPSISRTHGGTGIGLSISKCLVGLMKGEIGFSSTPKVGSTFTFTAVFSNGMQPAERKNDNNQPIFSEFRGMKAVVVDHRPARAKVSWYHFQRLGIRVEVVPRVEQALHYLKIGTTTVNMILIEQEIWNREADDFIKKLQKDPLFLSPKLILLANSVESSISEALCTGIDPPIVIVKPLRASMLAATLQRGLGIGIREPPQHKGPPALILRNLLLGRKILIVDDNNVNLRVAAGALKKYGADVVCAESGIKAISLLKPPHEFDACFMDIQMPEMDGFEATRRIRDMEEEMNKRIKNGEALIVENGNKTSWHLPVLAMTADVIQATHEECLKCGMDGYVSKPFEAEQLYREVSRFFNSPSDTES
Protocol Notes: Activation of Arabidopsis thaliana AHK3 cytokinin receptor relative to trans-zeatin
Set-up: concentration or dose not given beside the values
Flag rule - Activity less than 1% flags yes (1); the remaining entries get no (0).

Recorded results for 5 compounds are shown here.
INSERT INTO assay_data (compound_smiles, tested_system, label) VALUES
  ('COc1ccccc1CNc1ncnc2c1ncn2[C@@H]1O[C@H](CO)[C@@H](O)[C@H]1O', 'Histidine kinase 3 (Arabidopsis thaliana)', 'yes (1)'),
  ('COc1cccc(CNc2ncnc3c2ncn3[C@@H]2O[C@H](CO)[C@@H](O)[C@H]2O)c1', 'Histidine kinase 3 (Arabidopsis thaliana)', 'no (0)'),
  ('COc1ccc(CNc2ncnc3c2ncn3[C@@H]2O[C@H](CO)[C@@H](O)[C@H]2O)cc1', 'Histidine kinase 3 (Arabidopsis thaliana)', 'no (0)'),
  ('OC[C@H]1O[C@@H](n2cnc3c(NCc4ccccc4)ncnc32)[C@H](O)[C@@H]1O', 'Histidine kinase 3 (Arabidopsis thaliana)', 'no (0)'),
  ('OC[C@H]1O[C@@H](n2cnc3c(NCc4ccc(Cl)cc4)ncnc32)[C@H](O)[C@@H]1O', 'Histidine kinase 3 (Arabidopsis thaliana)', 'yes (1)');

Now, please, on to the next compound.
Query string: Just wondering, is Activity of OC[C@H]1O[C@@H](n2cnc3c(NCc4cccc(Cl)c4)ncnc32)[C@H](O)[C@@H]1O below 1%?
Result string: no (0)

* * *

System: G-361
Protocol Notes: Antitumor activity against human G361 cells after 72 hrs by Calcein AM assay
Format: functional, cell-based
Condition Set: G-361, 72 h
pIC50: −log10 of the molar value.
Measure: pIC50

Field: example entries. Status: answers known.
INSERT INTO assay_data (compound_smiles, result) VALUES
  ('OC[C@H]1O[C@@H](n2cnc3c(NCc4ccc(F)c(F)c4F)ncnc32)[C@H](O)[C@@H]1O', '< 3.78'),
  ('COc1ccc(CNc2ncnc3c2ncn3[C@@H]2O[C@H](CO)[C@@H](O)[C@H]2O)cc1', 3.94),
  ('Cc1cccc(CNc2ncnc3c2ncn3[C@@H]2O[C@H](CO)[C@@H](O)[C@H]2O)c1O', '< 3.78'),
  ('OC[C@H]1O[C@@H](n2cnc3c(NCc4cccc(OC(F)(F)F)c4)ncnc32)[C@H](O)[C@@H]1O', '< 3.78'),
  ('OC[C@H]1O[C@@H](n2cnc3c(NCc4ccc(OC(F)(F)F)cc4)ncnc32)[C@H](O)[C@@H]1O', '< 3.78'),
  ('COc1cccc(CNc2ncnc3c2ncn3[C@@H]2O[C@H](CO)[C@@H](O)[C@H]2O)c1O', 3.83),
  ('OC[C@H]1O[C@@H](n2cnc3c(NCc4ccccc4)ncnc32)[C@H](O)[C@@H]1O', '< 3.78'),
  ('OC[C@H]1O[C@@H](n2cnc3c(NCc4ccc(Cl)cc4Cl)ncnc32)[C@H](O)[C@@H]1O', 3.89);

Go through the list and state pIC50 for each entry.
1. OC[C@H]1O[C@@H](n2cnc3c(NCc4cccc(C(F)(F)F)c4)ncnc32)[C@H](O)[C@@H]1O
2. OC[C@H]1O[C@@H](n2cnc3c(NCc4c(F)ccc(F)c4F)ncnc32)[C@H](O)[C@@H]1O

Result string:
< 3.78
< 3.78
